- test: AUC (0 to 6 hrs) in OFA rat at 1 mg/kg, iv
- Assay type: ADME, organism-based
- Set-up: time < 6 hr, dose 1 mg/kg, route intravenous
- measurementSetup: plasma
Answer each item with its documented AUC(0-t) at 6 h.
One number for each entry, in ng·h/mL.

Before answering, review these 3 worked examples.
>>> reportedmeasurement("O=C(c1ccc(Cl)cc1)N1CCC(=Cc2ccc(C3=NCCO3)cc2)CC1")
1030
>>> reportedmeasurement("CN1CCN(c2ccc(CN3CCN(S(=O)(=O)c4ccc(Cl)cc4)CC3)cc2)CC1")
97
>>> reportedmeasurement("CN(C)Cc1ccc(CN2CCN(C(=O)c3ccc(OC(F)(F)F)cc3)CC2)cc1")
362

Turning to the following compound.
GET /values?readout=AUC(0-t) at 6 h&item= "O=C(c1ccc(Cl)cc1)N1CCN(Cc2ccc(-n3ccnc3)cc2)CC1"
534
